- SUBJECT_OF_TEST: IKZF1 (Homo sapiens, UniProt Q13422+Q96SW2)
- Construct: expressed in transfected cells
- Sequence (Q13422 whole entry): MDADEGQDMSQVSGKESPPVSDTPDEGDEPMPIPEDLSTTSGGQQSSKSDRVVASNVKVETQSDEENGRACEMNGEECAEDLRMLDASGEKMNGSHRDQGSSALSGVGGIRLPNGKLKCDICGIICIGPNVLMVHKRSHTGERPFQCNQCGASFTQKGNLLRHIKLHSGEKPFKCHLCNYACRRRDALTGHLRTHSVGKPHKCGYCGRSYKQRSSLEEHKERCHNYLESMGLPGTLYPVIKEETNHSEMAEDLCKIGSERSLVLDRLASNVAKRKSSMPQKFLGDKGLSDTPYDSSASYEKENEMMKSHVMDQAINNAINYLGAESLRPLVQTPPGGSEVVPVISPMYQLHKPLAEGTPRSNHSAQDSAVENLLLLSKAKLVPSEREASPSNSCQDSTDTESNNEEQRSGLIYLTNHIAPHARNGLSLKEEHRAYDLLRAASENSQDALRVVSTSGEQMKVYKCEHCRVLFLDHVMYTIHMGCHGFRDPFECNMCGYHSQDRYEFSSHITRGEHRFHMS
- Sequence (Q96SW2 whole entry): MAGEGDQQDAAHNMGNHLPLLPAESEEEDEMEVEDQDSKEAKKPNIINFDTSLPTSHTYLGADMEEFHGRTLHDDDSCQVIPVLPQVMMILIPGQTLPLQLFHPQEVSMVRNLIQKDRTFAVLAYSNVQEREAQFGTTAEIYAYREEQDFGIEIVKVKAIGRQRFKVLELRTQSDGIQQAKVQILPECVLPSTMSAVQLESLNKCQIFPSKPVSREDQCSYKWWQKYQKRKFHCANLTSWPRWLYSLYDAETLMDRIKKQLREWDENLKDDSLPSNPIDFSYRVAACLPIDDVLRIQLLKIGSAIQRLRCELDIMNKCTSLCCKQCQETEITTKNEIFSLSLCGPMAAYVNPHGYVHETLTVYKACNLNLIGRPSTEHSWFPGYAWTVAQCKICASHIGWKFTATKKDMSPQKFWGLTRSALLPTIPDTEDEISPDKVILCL
- Sequence (Q16531 whole entry partner): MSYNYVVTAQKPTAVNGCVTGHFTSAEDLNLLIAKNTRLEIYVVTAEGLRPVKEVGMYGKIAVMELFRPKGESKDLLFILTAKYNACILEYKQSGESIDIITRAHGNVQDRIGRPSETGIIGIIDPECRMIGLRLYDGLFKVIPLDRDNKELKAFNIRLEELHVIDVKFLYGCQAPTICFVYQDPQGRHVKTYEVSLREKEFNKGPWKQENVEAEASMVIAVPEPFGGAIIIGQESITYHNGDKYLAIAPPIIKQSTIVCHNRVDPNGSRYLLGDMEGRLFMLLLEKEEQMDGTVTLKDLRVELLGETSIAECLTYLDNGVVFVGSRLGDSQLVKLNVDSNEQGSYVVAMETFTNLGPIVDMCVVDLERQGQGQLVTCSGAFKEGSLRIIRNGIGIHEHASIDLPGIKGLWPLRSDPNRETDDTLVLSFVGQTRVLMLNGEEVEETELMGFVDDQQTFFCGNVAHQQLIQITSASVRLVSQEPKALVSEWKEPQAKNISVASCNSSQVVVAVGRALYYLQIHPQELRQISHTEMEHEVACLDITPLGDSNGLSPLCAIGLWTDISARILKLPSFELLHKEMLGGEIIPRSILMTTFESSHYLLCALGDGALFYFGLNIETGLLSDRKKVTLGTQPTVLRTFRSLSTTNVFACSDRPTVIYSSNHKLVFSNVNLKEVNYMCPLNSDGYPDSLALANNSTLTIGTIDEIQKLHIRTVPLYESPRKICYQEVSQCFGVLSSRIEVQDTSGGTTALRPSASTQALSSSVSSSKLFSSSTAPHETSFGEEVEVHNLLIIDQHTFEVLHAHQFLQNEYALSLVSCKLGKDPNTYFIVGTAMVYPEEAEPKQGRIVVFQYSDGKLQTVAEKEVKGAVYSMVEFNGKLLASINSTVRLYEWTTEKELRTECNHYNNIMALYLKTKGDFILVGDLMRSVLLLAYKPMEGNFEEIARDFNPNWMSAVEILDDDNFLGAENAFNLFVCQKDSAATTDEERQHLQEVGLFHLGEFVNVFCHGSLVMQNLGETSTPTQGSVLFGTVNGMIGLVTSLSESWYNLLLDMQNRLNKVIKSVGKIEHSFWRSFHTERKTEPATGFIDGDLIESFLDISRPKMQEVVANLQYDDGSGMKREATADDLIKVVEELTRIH
- ASSAY_OVERVIEW: HEK293 HiBiT in vitro degradation of IKZF1
- Assay type: cell-based
- EXPERIMENTAL_SETUP: HEK293 HiBiT, 18-24 hr incubation, normalized to DMSO control; read-out: IKZF1 EC50
Each entry below carries its recorded DC50.
READOUT: DC50

                                    compound                           subject_of_test  endpoint_result
 0  O=C1CCC(N2Cc3cc(C[C@H]4CCCC[C@@H]4NC4CC4)ccc3C2=O)C(=O)N1 (some centres unmarked)  IKZF1 (Homo sapiens, UniProt Q13422+Q96SW2)        > 1000 nM
 1  O=C1CCC(N2Cc3cc(C[C@H]4C[C@H](F)CC[C@@H]4NC4CCC(F)(F)CC4)ccc3C2=O)C(=O)N1 (some centres unmarked)  IKZF1 (Homo sapiens, UniProt Q13422+Q96SW2)            79 nM
 2  O=C1CCC(N2Cc3c(ccc(C[C@H]4CCCC[C@@H]4N(Cc4ccccc4)Cc4ccccc4)c3F)C2=O)C(=O)N1 (some centres unmarked)  IKZF1 (Homo sapiens, UniProt Q13422+Q96SW2)        > 1000 nM
 3  O=C1CCC(N2Cc3c(ccc(C[C@H]4CCCC[C@@H]4NC4CCOCC4)c3F)C2=O)C(=O)N1 (some centres unmarked) [Example 188]  IKZF1 (Homo sapiens, UniProt Q13422+Q96SW2)            44 nM
 4  O=C1CCC(N2Cc3cc(C[C@H]4CCCC[C@@H]4N(CC4CCOCC4)CC4CCOCC4)ccc3C2=O)C(=O)N1 (some centres unmarked)  IKZF1 (Homo sapiens, UniProt Q13422+Q96SW2)        > 1000 nM
 5  CN(C1CCC(F)(F)CC1)[C@H]1CCCC[C@@H]1Cc1ccc2c(c1)CN(C1CCC(=O)NC1=O)C2=O (some centres unmarked)  IKZF1 (Homo sapiens, UniProt Q13422+Q96SW2)        > 1000 nM
 6  CCC(C)N[C@H]1CCCO[C@@H]1Cc1ccc2c(c1F)CN(C1CCC(=O)NC1=O)C2=O (some centres unmarked) [Example 304]  IKZF1 (Homo sapiens, UniProt Q13422+Q96SW2)        > 1000 nM
 7  CC(N[C@H]1CCCC[C@@H]1Cc1ccc2c(c1F)CN(C1CCC(=O)NC1=O)C2=O)C1CCOCC1 (single isomer, unassigned) [Example 287]  IKZF1 (Homo sapiens, UniProt Q13422+Q96SW2)            66 nM
 8  O=C1CCC(N2Cc3cc(C[C@H]4CCCC[C@@H]4NCc4ccc5ccccc5c4)ccc3C2=O)C(=O)N1 (some centres unmarked)  IKZF1 (Homo sapiens, UniProt Q13422+Q96SW2)        > 1000 nM
 9  COc1ccc(CN[C@H]2CCCC[C@@H]2Cc2ccc3c(c2)CN(C2CCC(=O)NC2=O)C3=O)cc1 (some centres unmarked)  IKZF1 (Homo sapiens, UniProt Q13422+Q96SW2)        > 1000 nM
10  O=C1CCC(N2Cc3cc(C[C@H]4CCCC[C@@H]4NC4CCC4)ccc3C2=O)C(=O)N1 (some centres unmarked)  IKZF1 (Homo sapiens, UniProt Q13422+Q96SW2)        > 1000 nM
11  O=C1CCC(N2Cc3c(ccc(C[C@H]4OCCC[C@@H]4N[C@H]4CC[C@H](F)CC4)c3F)C2=O)C(=O)N1 (single isomer, unassigned)  IKZF1 (Homo sapiens, UniProt Q13422+Q96SW2)           632 nM
12  CC1(C)CC(N[C@H]2CCCO[C@@H]2Cc2ccc3c(c2F)CN(C2CCC(=O)NC2=O)C3=O)CCO1 (some centres unmarked) [Example 223]  IKZF1 (Homo sapiens, UniProt Q13422+Q96SW2)        > 1000 nM
13  O=C1CCC(N2Cc3cc(C[C@H]4CCCC[C@@H]4NCC4CC4)ccc3C2=O)C(=O)N1 (some centres unmarked)  IKZF1 (Homo sapiens, UniProt Q13422+Q96SW2)           229 nM
